Source: patent US5672715A

Quick reference for inhibition at 280.212 g/ha among some compounds
# System: Wheat
# assay details: pre-emergence herbicide test
# Assay type: in vivo
# stated conditions: Triticum aestivum, pre-emergence, 0.25 lb/A; read-out: % plant inhibition
Field format: number, assumed %, no unit text.

Known inhibition at 280.212 g/ha results, listed for orientation:
1) CCCCCOC(=O)c1cc(-c2nn(C)c(C(F)(F)F)c2C)c(F)cc1Cl :: 0
2) Cc1c(-c2cc(CSC(C)C)c(Cl)cc2F)nn(C)c1C(F)(F)F :: 0
3) COCC(C)OC(=O)c1cc(-c2nn(C)c(C(F)(F)F)c2C)c(F)cc1Cl (centres unmarked) :: 0
4) Cc1c(-c2ccc(Cl)cc2)nn(C)c1C(F)(F)F :: 0
5) Cc1c(-c2cc(C(=O)OCc3ccccc3)c(Cl)cc2F)nn(C)c1C(F)(F)F :: 3

In: inhibition at 280.212 g/ha for CCCCCCCCCCCCOC(=O)c1cc(-c2nn(C)c(C(F)(F)F)c2C)c(F)cc1Cl ?
Out: 0

In: inhibition at 280.212 g/ha for Cc1c(-c2cc(C(=O)OCC(=O)c3ccccc3)c(Cl)cc2F)nn(C)c1C(F)(F)F ?
Out: 0

In: inhibition at 280.212 g/ha for CCC(C)OC(=O)c1cc(-c2nn(C)c(C(F)(F)F)c2C)c(F)cc1Cl (centres unmarked) ?
Out: 5

====

# Tested on: Soybean
# assay details: post-emergence herbicide test
# Type: in vivo
# stated conditions: Glycine max, post-emergence, 0.25 lb/A; read-out: % plant inhibition
# Source text: Topsoil was placed in aluminum pans having holes in the bottom and compacted to a depth of 1.3 to 1.6 cm from the top of the pan. A predetermined number of seeds of each of several dicotyledonous and monocotyledonous annual plant species and/or vegetative propagules for the perennial plant species were placed on the soil and pressed into the soil surface. The seeds and/or vegetative propagules were covered with soil and leveled. […]
Mark 0 for inhibition at 280.212 g/ha values under 20%, and 1 for everything at or above.

Field: example entries. Status: answers known.
1. Cc1c(-c2cc(C(=O)OCC3CNCCO3)c(Cl)cc2F)nn(C)c1C(F)(F)F (stereo not drawn) :: 1
2. Cc1c(-c2cc(CSC(C)C)c(Cl)cc2F)nn(C)c1C(F)(F)F :: 1

In: Hi team, for Cc1c(-c2ccc(Cl)cc2)nn(C)c1C(F)(F)F , is the recorded inhibition at 280.212 g/ha at or above 20%?
Out: 0

====

Quick reference for inhibition at 1000.92 g/ha among some molecules
# Test system: Velvetleaf
# assay details: post-emergence herbicide test
# Format: in vivo
# stated conditions: Abutilon theophrasti, post-emergence, 0.893 lb/A; read-out: % plant inhibition
Field format: number, assumed %, no unit text.

Known inhibition at 1000.92 g/ha results, listed for orientation:
1. Cc1c(-c2cc(OCC(=O)OC(C)C)c(Cl)cc2F)nn(C)c1C(F)(F)F [Compound 38] :: 100
2. Cc1c(-c2cc(O)c(Cl)cc2F)nn(C)c1C(F)(F)F [Compound 40] :: 100
3. C#CCOc1cc(-c2nn(C)c(C(F)(F)F)c2C)c(F)cc1Cl [Compound 39] :: 100
4. COc1cc(-c2nn(C)c(C(F)(F)F)c2C)c(F)cc1Cl [Compound 37] :: 100
5. Cc1c(-c2cc(F)c([N+](=O)[O-])cc2F)nn(C)c1C(F)(F)F [Compound 35] :: 75

In: inhibition at 1000.92 g/ha for Cn1nc(-c2cc(F)ccc2F)c(C=O)c1C(F)(F)F [Compound 34] ?
Out: 0

In: inhibition at 1000.92 g/ha for COc1cc(-c2nn(C)c(C(F)(F)F)c2C)c(F)cc1[N+](=O)[O-] [Compound 36] ?
Out: 100

In: inhibition at 1000.92 g/ha for Cc1c(-c2cc(F)ccc2F)nn(C)c1C(F)(F)F [Compound 1] ?
Out: 0
